- System: CHEK1
- ASSAY_CONDITIONS: Compound Concentration (nM):1000;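 further: KINOMEscan scanMAX binding as percent activity remaining versus control; lower means stronger binding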
In this section we review reported Percent Control values for a set of molecules.
READOUT: Percent Control (%)

CN1CCN(C(=O)c2ccc(NC(=O)Nc3ccc(N(C)c4ccnc(Nc5ccc(CS(C)(=O)=O)cc5)n4)cc3)cc2)CC1.Cl [GW830263A] | 100
NS(=O)(=O)c1ccc(Nc2ncc(-c3ccccc3)o2)cc1 [GW572399X] | 100
CCn1c(-c2nonc2N)nc2c(C#CC(C)(C)O)nc(OCCNC)cc21.Cl | 100
Cl.c1ccc(Cc2nc3ccc(Nc4ncnc5ccccc45)cc3[nH]2)cc1 [GR269666A] | 100
NS(=O)(=O)c1ccc(N/N=C2\C(=O)Nc3ccc(C(=O)NCCc4c[nH]cn4)cc32)cc1 [GW300660X] | 100
COc1cccc(-c2c[nH]c3c(N/N=C/c4ccncc4)ncnc23)c1 [GW814408X] | 100
O=C(Nc1n[nH]c2nc(-c3ccc(O)cc3)c(Br)cc12)C1CC1 | 100
COc1cc2ncn(-c3cc(O[C@H](C)c4ccccc4Cl)c(C(N)=O)s3)c2cc1OC [GSK237701A] | 100
COc1ccccc1-c1cc(/C=C2\C(=O)Nc3ncc(Br)cc32)cc(Br)c1O [GW442130X] | 100
CCS(=O)(=O)c1ccc(OC)c(Nc2ncc(-c3cccc(F)c3)o2)c1 [GW621970X] | 100
COc1cc(N2CCN(C(C)C)CC2)ccc1Nc1nc(Nc2ccc(F)cc2C(=O)NC[C@@H](O)CO)c2cc[nH]c2n1 [GSK1392956A] | 94
COc1cc(C)c(N(C)C(=O)CN(C)C)cc1Nc1nc(Nc2cccc(F)c2C(N)=O)c2cc[nH]c2n1 | 92
COc1ccc2cc(-c3c(-c4ccncc4)nc(-c4ccc(S(C)(=O)=O)cc4C)n3C)ccc2c1 | 88
C/C(Nc1ccc(S(N)(=O)=O)cc1)=C1/C(=O)Nc2ccccc21 [GW335962X] | 93
NS(=O)(=O)c1ccc(N/N=C2\C(=O)Nc3ccc(-c4cnco4)cc32)cc1 | 100
CCc1ccc(Oc2nccc(-c3c(-c4ccc(F)cc4)ncn3C3CCNCC3)n2)cc1 | 90
Cc1cc(O)cc(C)c1/C=C/c1cncc(C(N)=O)c1 [GW435821X] | 100

---

- System: GAK
- ASSAY_CONDITIONS: Compound Concentration (nM):1000
READOUT: Percent Control (%)

Cl.c1ccc(Cc2nc3ccc(Nc4ncnc5ccccc45)cc3[nH]2)cc1 [GR269666A] | 100
NS(=O)(=O)c1ccc(N/N=C2\C(=O)Nc3ccc(-c4cnco4)cc32)cc1 [GW276655] | 70
Cl.O=S1CCN(Cc2ccc(-c3ccc4ncnc(Nc5ccc(OCc6ccccc6)c(F)c5)c4c3)o2)CC1 [GW576924A] | 100
CCn1c(-c2nonc2N)nc2c(C#CC(C)(C)O)nc(OCCNC)cc21.Cl [GSK949675] | 100

---

- Test system: ROS1
- ASSAY_CONDITIONS: Compound Concentration (nM):1000
Decision: Percent Control compared against 80%; not below it gives true (1), below it gives false (0).

Cl.O=C(Nc1ccc(Oc2ccc3[nH]c(NC(=O)c4ccco4)nc3c2)cc1)Nc1cc(C(F)(F)F)ccc1F [GW683134A] | false (0)
COc1cccc(-c2c[nH]c3c(N/N=C/c4ccncc4)ncnc23)c1 [GW814408X] | true (1)
COc1cc(C)c(N(C)C(=O)CN(C)C)cc1Nc1nc(Nc2cccc(F)c2C(N)=O)c2cc[nH]c2n1 [GSK2219385] | true (1)
COc1cccc(-n2ncc3c(N/N=C/c4ccncc4)ncnc32)c1 [GW784752X] | true (1)
COc1cc2ncn(-c3cc(O[C@H](C)c4ccccc4Cl)c(C(N)=O)s3)c2cc1OC [GSK237701A] | true (1)
C/C(Nc1ccc(S(N)(=O)=O)cc1)=C1/C(=O)Nc2ccccc21 [GW335962X] | false (0)
